Molecular target: NHERF4_4, Q86UT5
Sequence (Q86UT5 464-550): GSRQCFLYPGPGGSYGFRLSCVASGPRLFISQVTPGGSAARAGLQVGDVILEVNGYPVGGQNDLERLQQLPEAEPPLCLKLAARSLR
Assay: holdup assay
Design: key: below the threshold = too weak to quantify, mostly under pKd 3.1 to 4
Details: plain residues with an end cap or a label only (N-terminal biotin on a linker: ado-ado)
METRIC: pKd

Study these solved cases before continuing.
BINDER: MHIQEKGFHV [EPHA6, Q9UF33]
pKd: below the threshold
--
BINDER: TNSRHGETTV [FZD2, Q14332]
pKd: 3.92
--
BINDER: STKRKLASAV [NCF1, P14598]
pKd: below the threshold
--
BINDER: NVYGIESVKI [GRIA2, P42262]
pKd: below the threshold
--
BINDER: SLNANEVEWF [RNF130, Q86XS8]
pKd: 4.1
--
BINDER: PTPDLPQTRV [KLHDC7A, Q5VTJ3]
pKd: below the threshold
--
BINDER: QKAPTKEFYA [SDC2, P34741]
pKd: below the threshold
--
BINDER: GTGYDRKDYV [CLDN3, O15551]
pKd: below the threshold
--
BINDER: SPDRDRESIV [SCN5A, Q14524]
pKd: 3.88
--
BINDER: GIKKITSTAL [RPS6KA3, P51812]
pKd: 3.99

Entry under test: MQHQRTHTRV [ZSCAN30, Q86W11] . Its pKd was below the threshold

Entry under test: PSHPRLQTHV [KIRREL2, Q6UWL6] . Its pKd was below the threshold

Entry under test: EDLEDEWEVI [TECPR2, O15040] . Its pKd was below the threshold

Entry under test: TGLWKHETTV [ADGRA3, Q8IWK6] . Its pKd was 3.87

Entry under test: VKRNSKETVV [MARCHF3, Q86UD3] . Its pKd was below the threshold

Entry under test: PSVGSKKTVL [REELD1, A0A1B0GV85] . Its pKd was below the threshold

Entry under test: SVTSERETNI [SLC16A7, O60669] . Its pKd was below the threshold

Entry under test: EPQYQPGENL [SRC, P12931] . Its pKd was below the threshold

Entry under test: AAVENKVTDL [PLXNB1, O43157] . Its pKd was below the threshold

Entry under test: KRPEMTSSSV [MUC3B, MUC3A, Q02505;Q9H195] . Its pKd was below the threshold

Entry under test: GEDRSPPTAL [MKNK1, Q9BUB5] . Its pKd was below the threshold

Entry under test: QSGLYESEEL [MYOT, Q9UBF9] . Its pKd was below the threshold

Entry under test: ARESQKVSHV [FAM110B, Q8TC76] . Its pKd was below the threshold
